Data origin, for the record: ChEMBL document CHEMBL1124456

Molecular target: D(2) dopamine receptor (Rattus norvegicus)
Sequence (P61169 whole entry): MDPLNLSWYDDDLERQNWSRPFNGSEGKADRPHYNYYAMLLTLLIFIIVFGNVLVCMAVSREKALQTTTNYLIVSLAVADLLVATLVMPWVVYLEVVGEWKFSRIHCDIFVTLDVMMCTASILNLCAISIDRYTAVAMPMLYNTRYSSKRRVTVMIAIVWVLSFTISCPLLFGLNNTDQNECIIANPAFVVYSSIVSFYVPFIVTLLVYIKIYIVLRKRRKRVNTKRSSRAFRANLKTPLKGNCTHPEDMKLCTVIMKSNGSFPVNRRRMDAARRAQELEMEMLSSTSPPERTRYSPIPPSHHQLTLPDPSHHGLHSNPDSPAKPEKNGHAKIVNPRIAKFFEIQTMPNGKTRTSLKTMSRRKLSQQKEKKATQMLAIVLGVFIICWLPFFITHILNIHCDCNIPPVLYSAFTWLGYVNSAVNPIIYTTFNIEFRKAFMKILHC
Assay: In vitro ability to inhibit [3H]spiperone binding to Dopamine receptor D2 of rat limbic structures.
Type: tissue-based, Limbic system

compound: Cl.O=C1C2C3CCC(O3)C2S(=O)(=O)N1CCCCN1CCN(c2nccnc2Cl)CC1 (stereo unspecified)
unit_annotation: µM
Ki: 3.3
